Provenance of the data: patent EP0787493A1

target: NMDA receptors; assay: 3H-MK801 (Dizocilpine) binding in vitro; details: high affinity binding site; rat whole brain membranes; 5nM 3H-MK-801; glutamate, glycine and spermidine present; read-out: 3H-MK 801 / IC50 (µM) high
So I've got a bunch of molecules here, and I need their IC50 values.
Answers are plain numbers, in µM.

Field: example entries. Status: answers known.
COc1ccc(C(O)CC2c3cc(OC)c(OC)cc3CCN2C)cc1 (stereo not drawn) [I] : 0.59
Cc1cc2c(cc1C)C(CCc1ccc(Cl)cc1)N(C)C(C)C2 (stereo not drawn) [X] : 3.87
CN1CCc2cc(O)c(O)cc2C1CCc1ccc(Cl)c(Cl)c1 (stereo not drawn) [T] : 2.31
CN1CCc2cc3c(cc2C1CCc1ccc(Cl)cc1)OCO3 (stereo not drawn) [P] : 1.7
COc1cc2c(cc1OC)C(CCc1ccc(Br)cc1)N(C)CC2 (stereo not drawn) [L] : 1.37

Attention now turns to another entry.
Request: // fetch IC50; item: COc1cc2c(cc1OC)C(CC(O)c1ccc(C)cc1)N(C)CC2 (stereo not drawn) [A] ; system: NMDA receptors
Response: 0.04

* * *

Biological target: NMDA receptors
Assay: 3H-MK801 (Dizocilpine) binding in vitro
Conditions: low affinity binding site; rat whole brain membranes; 5nM 3H-MK-801; glutamate, glycine and spermidine present; read-out: 3H-MK 801 / IC50 (µM) low
Procedure: 3H-MK801 (Dizocilpine) binding in vitro The whole brain from 150-200g male rats, without cerebellum and without medulla oblongata was dissected on ice. […] The incubation was performed in the presence of 1nM glutamate, glycine and spermidine. […] Non specific binding was determined in presence of 100mM TCP. […] The air-dried filters were counted with 10ml of Ultima-gold (Packard) in a Tri-Carb 2500 TR scintillation counter after agitation. […]
Label True when IC50 is strictly below 100 µM; at or above that, label False.

Worked examples follow.
COc1cc2c(cc1O)C(CCc1ccc(Cl)cc1)N(C)CC2 (centres unmarked) : True
COc1cc2c(cc1OC)C1CCCCC1NC2CCc1ccc(Cl)cc1 (centres unmarked) : False
COc1cc2c(cc1OC)C(CCc1ccc(Cl)cc1)N(C)C1CCCCC21 (centres unmarked) : False
COc1ccc(C(O)CC2c3cc(OC)c(OC)cc3CCN2C)cc1 (centres unmarked) : False
COc1cc2c(cc1OC)C(CC(O)c1ccc(Cl)cc1)N(C)CC2 (single isomer, unassigned) [V] : False
CN1CCc2cc3c(cc2C1CCc1ccc(Cl)cc1)OCO3 (centres unmarked) : True
CN1CCc2cc(O)c(O)cc2C1CCc1ccc(Cl)cc1 (centres unmarked) : False
COc1cc2c(cc1OC)C(CCc1ccc(C)cc1)N(C)CC2 (centres unmarked) : False
Cc1cc2c(cc1C)C(CCc1ccc(Cl)cc1)N(C)C(C)C2 (centres unmarked) : False
COc1ccc(CCC2c3cc(OC)c(OC)cc3CCN2C)cc1 (centres unmarked) : True

Request: # check: IC50 < 100 µM for COc1cc2c(cc1OC)C(CC(O)c1ccc(Cl)cc1)N(C)CC2 (single isomer, unassigned) [C]
Response: False

Request: Does COc1cc2c(cc1OC)C(CC(O)c1ccc([N+](=O)[O-])cc1)N(C)CC2 (centres unmarked) have IC50 strictly under 100 µM?
Response: True

Request: Does the reported IC50 of the following compound sit strictly below 100 µM? CCC(=O)OC(CC1c2cc(OC)c(OC)cc2CCN1C)c1ccc(Cl)cc1 (centres unmarked)
Response: False

Request: Given COc1cc2c(cc1OC)C(CCc1ccc([N+](=O)[O-])cc1)N(C)CC2 (centres unmarked) [U] , is recorded IC50 strictly lower than 100 µM?
Response: True

* * *

molecular target: NMDA receptors; experiment: 3H-MK801 (Dizocilpine) binding in vitro; conditions: high affinity binding site; rat whole brain membranes; 5nM 3H-MK-801; glutamate, glycine and spermidine present; read-out: 3H-MK 801 / IC50 (µM) high
readout name: IC50 (µM)
Give bare numbers, in µM.

For each entry beneath this line, provide reported IC50.
1. COc1ccc(CCC2c3cc(OC)c(OC)cc3CCN2C)cc1 (centres unmarked)
2. CN1CCc2cc(O)c(O)cc2C1CCc1ccc(Cl)cc1 (centres unmarked)
3. COc1cc2c(cc1OC)C(CC(O)c1cc(Cl)c(Cl)cc1Cl)N(C)CC2 (centres unmarked)
4. COc1cc2c(cc1OC)C(CC(O)c1ccc(Cl)cc1)N(C)CC2 (single isomer, unassigned) [V]

Response:
[1.39, 0.29, 0.91, 2.9]

Hi, could you look up IC50 for each item in my list?
1. CCC(=O)OC(CC1c2cc(OC)c(OC)cc2CCN1C)c1ccc(Cl)cc1 (centres unmarked)
2. COc1cc2c(cc1OC)C(CC(O)c1ccc([N+](=O)[O-])cc1)N(C)CC2 (centres unmarked)
3. COc1cc2c(cc1OC)C(CCc1ccc(Cl)c(Cl)c1)N(C)CC2 (centres unmarked)
4. COc1cc2c(cc1OC)C1CCCCC1NC2CCc1ccc(Cl)cc1 (centres unmarked)

Response:
[2.18, 0.46, 4.62, 0.5]

* * *

Field: IC50. Provide a value for each of the molecules that follow.
Molecular target: NMDA receptors
Assay: 3H-MK801 (Dizocilpine) binding in vitro
Details: low affinity binding site; rat whole brain membranes; 5nM 3H-MK-801; glutamate, glycine and spermidine present; read-out: 3H-MK 801 / IC50 (µM) low
Method: 3H-MK801 (Dizocilpine) binding in vitro The whole brain from 150-200g male rats, without cerebellum and without medulla oblongata was dissected on ice. […] The incubation was performed in the presence of 1nM glutamate, glycine and spermidine. […] Non specific binding was determined in presence of 100mM TCP. […] The air-dried filters were counted with 10ml of Ultima-gold (Packard) in a Tri-Carb 2500 TR scintillation counter after agitation. […]
Answers are plain numbers, in µM.

COc1cc2c(cc1OC)C(CC(O)c1ccc(C)cc1)N(C)CC2 (stereo not shown) : 223
COc1cc2c(cc1OC)C(CC(OC(C)=O)c1ccc(Cl)cc1)N(C)CC2 (stereo not shown) : 161
COc1cc2c(cc1OC)C(CCc1ccc(Br)cc1)N(C)CC2 (stereo not shown) : 198
COc1cc2c(cc1OC)C(CC(O)c1cc(Cl)c(Cl)cc1Cl)N(C)CC2 (stereo not shown) : 613
COc1ccc2c(c1OC)CCN(C)C2CCc1ccc(Cl)cc1 (stereo not shown) : 129
CN1CCc2cc(O)c(O)cc2C1CCc1ccc(Cl)c(Cl)c1 (stereo not shown) : 56
COc1cc2c(cc1OC)C(CCc1ccc(Cl)c(Cl)c1)N(C)CC2 (stereo not shown) : 185
COc1cc2c(cc1OC)C(CCc1ccccc1)N(C)CC2 (stereo not shown) : 147

Return reported IC50 values for all items listed beneath this line.
1. COc1cc2c(cc1OC)C(CCc1ccc([N+](=O)[O-])cc1)N(C)CC2 (stereo not shown) [O]
2. COc1cc2c(cc1OC)C(CCc1ccc(C(C)C)cc1)N(C)CC2 (stereo not shown)

Response:
1. 101
2. 370

* * *

molecular target: NMDAR1C - NMDAR2A (Rattus norvegicus, UniProt P35439+Q00959); construct: expressed in transfected cells; host or cells: Xenopus laevis oocytes injected with in vitro transcribed mRNA (1:1 mixture); assay: Electrophysiology on recombinant NMDA receptors expressed in oocytes; assay type: cell-based; details: Xenopus laevis oocytes, voltage clamp -80 mV; 70 µM Asp plus 2.5 µM Gly; read-out: Electrophysiology/IC50 (µM) oocytes NMDAR 1C & 2A
Sequence (Q00959 23-1464, other chains not shown): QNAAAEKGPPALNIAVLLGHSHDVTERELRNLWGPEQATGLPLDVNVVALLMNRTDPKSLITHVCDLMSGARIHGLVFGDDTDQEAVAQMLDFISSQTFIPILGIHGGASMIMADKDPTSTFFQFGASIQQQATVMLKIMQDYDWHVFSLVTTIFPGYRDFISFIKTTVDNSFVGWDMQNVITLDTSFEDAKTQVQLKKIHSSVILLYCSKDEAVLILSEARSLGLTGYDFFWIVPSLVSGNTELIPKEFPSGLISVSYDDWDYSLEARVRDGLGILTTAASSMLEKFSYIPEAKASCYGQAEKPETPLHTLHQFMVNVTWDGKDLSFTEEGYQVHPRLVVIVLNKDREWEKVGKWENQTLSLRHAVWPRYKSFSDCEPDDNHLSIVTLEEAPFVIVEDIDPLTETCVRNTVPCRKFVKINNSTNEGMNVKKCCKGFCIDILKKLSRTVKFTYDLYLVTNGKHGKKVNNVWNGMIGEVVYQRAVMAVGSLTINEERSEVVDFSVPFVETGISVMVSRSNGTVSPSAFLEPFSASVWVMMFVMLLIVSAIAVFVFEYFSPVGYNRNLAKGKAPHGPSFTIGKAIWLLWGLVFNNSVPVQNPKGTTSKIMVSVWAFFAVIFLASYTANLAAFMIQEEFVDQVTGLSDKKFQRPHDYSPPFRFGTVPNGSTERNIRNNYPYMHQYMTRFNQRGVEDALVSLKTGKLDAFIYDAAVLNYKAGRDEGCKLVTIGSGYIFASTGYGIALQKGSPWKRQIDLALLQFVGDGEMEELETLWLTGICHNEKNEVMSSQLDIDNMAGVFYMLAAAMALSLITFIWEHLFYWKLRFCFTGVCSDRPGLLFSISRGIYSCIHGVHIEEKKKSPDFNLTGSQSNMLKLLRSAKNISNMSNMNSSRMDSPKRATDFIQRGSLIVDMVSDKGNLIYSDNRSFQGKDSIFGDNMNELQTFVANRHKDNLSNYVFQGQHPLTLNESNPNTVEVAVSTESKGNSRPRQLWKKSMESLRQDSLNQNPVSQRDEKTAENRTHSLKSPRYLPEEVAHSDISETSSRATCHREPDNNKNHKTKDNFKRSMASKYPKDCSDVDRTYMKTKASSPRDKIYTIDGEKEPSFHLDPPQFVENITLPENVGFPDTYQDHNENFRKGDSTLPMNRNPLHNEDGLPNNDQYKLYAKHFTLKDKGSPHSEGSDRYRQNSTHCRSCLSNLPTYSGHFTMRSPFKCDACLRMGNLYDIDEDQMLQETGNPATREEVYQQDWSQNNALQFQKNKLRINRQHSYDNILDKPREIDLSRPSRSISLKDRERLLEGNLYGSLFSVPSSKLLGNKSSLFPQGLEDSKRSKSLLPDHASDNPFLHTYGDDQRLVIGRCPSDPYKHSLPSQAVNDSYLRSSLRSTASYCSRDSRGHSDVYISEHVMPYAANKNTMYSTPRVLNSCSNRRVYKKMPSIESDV
readout name: IC50

COc1cc2c(cc1OC)C(CCc1ccc(Cl)cc1)N(C)C1CCCCC21 (stereo not drawn) : > 30 µM
COc1cc2c(cc1OC)C(CC(O)c1ccc(Cl)cc1)N(C)CC2 (single isomer, unassigned) : > 20 µM

Request: Provide IC50 value for the following compound: COc1cc2c(cc1OC)C(CC(O)c1ccc(C)cc1)N(C)CC2 (stereo not drawn)
Response: > 100 µM

* * *

biological target: NMDA receptors; test: 3H-MK801 (Dizocilpine) binding in vitro; conditions: high affinity binding site; rat whole brain membranes; 5nM 3H-MK-801; glutamate, glycine and spermidine present; read-out: 3H-MK 801 / IC50 (µM) high
Mark T only for IC50 values smaller than 2 µM; exact matches and larger values are F.

For orientation, consider the following solved cases.
COc1cc2c(cc1OC)C(CCc1ccc([N+](=O)[O-])cc1)N(C)CC2 (centres unmarked) [U] : F
COc1cc2c(cc1OC)C(CCc1ccc(C(C)C)cc1)N(C)CC2 (centres unmarked) : T
COc1cc2c(cc1OC)C(CCc1ccc(C)cc1)N(C)CC2 (centres unmarked) : T

Request: Here's an entry: COc1cc2c(cc1OC)C(CCc1ccc([N+](=O)[O-])cc1)N(C)CC2 (centres unmarked) [O] . Is its IC50 below 2 µM?
Response: T

Request: Please state whether IC50 is below 2 µM for COc1cc2c(cc1OC)C(CCc1ccccc1)N(C)CC2 (centres unmarked)
Response: F
